The measured values listed here are drawn from patent US20090004214A1.

- System Tested: T1, HLA-DR13 molecule (DRB1*1301) (human)
- T1 construct: HLA class II heterodimer
- Experiment Description: competitive ELISA, tracer B1 21-36
pIC50: −log10 of the molar value.
Group membership follows pIC50 per the scheme small value (below 5), mid value (5 to below 6), large value (6 or more)

Place this binder in its band: LTLGEFLKLDRERAK (synthetic 15-mer) [survivin peptide 96-110] large value

Field: class (pIC50) — entry: PTLPPAWQPFLKDHR (synthetic 15-mer) [survivin peptide 4-18] small value

Field: class (pIC50) — entry: PAWQPFLKDHRISTF (synthetic 15-mer) [survivin peptide 8-22] mid value

Each binder maps to one class by pIC50. Which class for QPFLKDHRISTFKNW (synthetic 15-mer) [survivin peptide 11-25] ? mid value

Into which category would you place PDLAQCFFCFKELEG (synthetic 15-mer) [survivin peptide 52-66] ? small value
